Assayed system: PPARα (Homo sapiens, UniProt Q07869)
Construct: expressed in transfected cells; host or cells: COS-7 cells
Sequence (Q07869 239-466 limits assumed): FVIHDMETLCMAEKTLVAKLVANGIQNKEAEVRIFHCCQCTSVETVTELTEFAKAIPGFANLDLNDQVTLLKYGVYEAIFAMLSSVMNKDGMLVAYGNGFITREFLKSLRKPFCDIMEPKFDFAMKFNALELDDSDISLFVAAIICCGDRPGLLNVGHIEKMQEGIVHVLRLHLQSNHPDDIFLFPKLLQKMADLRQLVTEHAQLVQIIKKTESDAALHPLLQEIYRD
Assay info: PPARα/Gal4 transactivation system in COS-7 cells
Assay type: cell-based
Settings: 0.3 μM, 24 hours
Overview of recorded Induction factor for various compounds
Form field (numeric): enter value without unit.

Examples with their reported Induction factor follow.
| Smiles str | Induction factor |
| --- | --- |
| COc1ccc(C(=O)/C=C/c2cc(C)c(OC(C)(C)C(=O)O)c(C)c2)cc1F | 15.51 |
| CSc1c(C)cc(C(=O)/C=C/c2cc(C)c(OC(C)(C)C(=O)O)c(C)c2)cc1C | 15.95 |
| CCCCCCSc1c(C)cc(C(=O)/C=C/c2cc(C)c(OC(C)(C)C(=O)O)c(C)c2)cc1C | 10.16 |

Query: What reported Induction factor corresponds to "COc1ccc(C(=O)/C=C/c2cc(C)c(OC(C)(C)C(=O)O)c(C)c2)cc1C" on PPARα (Homo sapiens, UniProt Q07869)?
Result: 17.25

###

Assayed system: PPARγ (Homo sapiens)
Construct: expressed in transfected cells; host or cells: COS-7 cells
Sequence (P37231 238-503 limits assumed): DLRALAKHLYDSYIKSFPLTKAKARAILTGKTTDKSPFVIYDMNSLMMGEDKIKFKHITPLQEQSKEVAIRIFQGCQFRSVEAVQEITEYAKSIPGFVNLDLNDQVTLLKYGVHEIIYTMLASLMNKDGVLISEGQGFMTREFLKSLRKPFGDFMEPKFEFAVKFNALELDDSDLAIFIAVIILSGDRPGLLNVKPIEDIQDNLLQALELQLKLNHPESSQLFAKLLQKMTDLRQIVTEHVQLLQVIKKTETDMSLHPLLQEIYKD
Assay info: PPARγ/Gal4 transactivation system in COS-7 cells
Type: cell-based
Settings: 0.01 μM, 24 hours
Item-by-item account of Induction factor
// no unit, no text: just the number

| Smiles str | Data value |
| --- | --- |
| Cc1cc(/C=C/C(=O)c2ccc(Oc3ccccc3)cc2)cc(C)c1OC(C)(C)C(=O)O | 2.65 |

Query: Return reported Induction factor; argument: "CCCCCCSc1c(C)cc(C(=O)/C=C/c2cc(C)c(OC(C)(C)C(=O)O)c(C)c2)cc1C"
Result: 1.56

Query: Try this molecule too: "Cc1cc(/C=C/C(=O)c2c(C)c(C)c(C)c(C)c2C)cc(C)c1OC(C)(C)C(=O)O"
Result: 3.06

Query: And what about the molecule "CSc1c(C)cc(C(=O)/C=C/c2cc(C)c(OC(C)(C)C(=O)O)c(C)c2)cc1C" ?
Result: 1.67

Query: Similarly, "Cc1cc(/C=C/C(=O)c2ccc(OCCSC3CCCCC3)cc2)cc(C)c1OC(C)(C)C(=O)O" ?
Result: 3.48

###

Assayed system: PPARγ (Homo sapiens)
Construct: expressed in transfected cells; host or cells: COS-7 cells
Sequence (P37231 238-503 limits assumed): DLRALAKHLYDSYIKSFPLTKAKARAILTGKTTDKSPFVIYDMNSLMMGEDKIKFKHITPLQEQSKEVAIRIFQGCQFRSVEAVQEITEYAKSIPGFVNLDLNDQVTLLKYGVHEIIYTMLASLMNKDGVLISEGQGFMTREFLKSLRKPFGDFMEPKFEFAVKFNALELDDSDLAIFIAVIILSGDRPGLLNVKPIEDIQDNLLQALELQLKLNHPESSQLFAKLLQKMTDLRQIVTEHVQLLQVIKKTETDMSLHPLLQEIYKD
Assay info: PPARγ/Gal4 transactivation system in COS-7 cells
Format: cell-based
Settings: 0.1 μM, 24 hours
Description: COS-7 cells were incubated with different concentrations of the inventive compounds for 24 hours. The results are expressed as the induction factor (ratio of luminescent signal obtained with the compound and that observed without the compound) after the different treatments. […]
Parameter Induction factor: see the listing below.
// response body must contain only the number

| Smiles str | Induction factor |
| --- | --- |
| Cc1cc(/C=C/C(=O)c2ccc(OCCSC3CCCCC3)cc2)cc(C)c1OC(C)(C)C(=O)O | 6.17 |

Query: Entry under review: "Cc1cc(/C=C/C(=O)c2c(C)c(C)c(C)c(C)c2C)cc(C)c1OC(C)(C)C(=O)O" . Reported Induction factor?
Result: 5.99

Query: Likewise for "CSc1c(C)cc(C(=O)/C=C/c2cc(C)c(OC(C)(C)C(=O)O)c(C)c2)cc1C" ?
Result: 3.01

Query: Input "Cc1cc(/C=C/C(=O)c2ccc(Oc3ccccc3)cc2)cc(C)c1OC(C)(C)C(=O)O"
Result: 4.88

Query: Entry to check: "CCCCCCSc1c(C)cc(C(=O)/C=C/c2cc(C)c(OC(C)(C)C(=O)O)c(C)c2)cc1C"
Result: 4.08

###

Assayed system: PPARγ (Homo sapiens)
Construct: expressed in transfected cells; host or cells: COS-7 cells
Assay info: PPARγ/Gal4 transactivation system in COS-7 cells
Format: cell-based
Settings: 0.003 μM, 24 hours
// Induction factor lookup, one value per entry
// return just the number, without any unit appended

| Molecule | Readout kind | Data value |
| --- | --- | --- |
| CSc1c(C)cc(C(=O)/C=C/c2cc(C)c(OC(C)(C)C(=O)O)c(C)c2)cc1C [compound 13] | Induction factor | 1.15 |
| Cc1cc(/C=C/C(=O)c2ccc(Oc3ccccc3)cc2)cc(C)c1OC(C)(C)C(=O)O [compound 33] | Induction factor | 1.61 |
| Cc1cc(/C=C/C(=O)c2c(C)c(C)c(C)c(C)c2C)cc(C)c1OC(C)(C)C(=O)O [compound 31] | Induction factor | 2.19 |
| Cc1cc(/C=C/C(=O)c2ccc(OCCSC3CCCCC3)cc2)cc(C)c1OC(C)(C)C(=O)O [compound 23] | Induction factor | 2.86 |

// moving on: another record for Induction factor
Query: For the molecule shown here, CCCCCCSc1c(C)cc(C(=O)/C=C/c2cc(C)c(OC(C)(C)C(=O)O)c(C)c2)cc1C [compound 39] , give the reported Induction factor.
Result: 0.96

###

Recorded measurements of Induction factor, one per entry
Assayed system: PPARγ (Homo sapiens)
Construct: expressed in transfected cells; host or cells: COS-7 cells
Sequence (P37231 238-503 limits assumed): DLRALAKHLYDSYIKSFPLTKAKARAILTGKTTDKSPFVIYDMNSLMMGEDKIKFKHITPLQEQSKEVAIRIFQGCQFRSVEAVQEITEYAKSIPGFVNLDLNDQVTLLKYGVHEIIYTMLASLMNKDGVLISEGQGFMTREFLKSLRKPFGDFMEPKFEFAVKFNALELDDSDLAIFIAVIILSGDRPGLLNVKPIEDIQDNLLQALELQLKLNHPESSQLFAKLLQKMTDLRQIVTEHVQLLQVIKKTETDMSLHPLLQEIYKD
Assay info: PPARγ/Gal4 transactivation system in COS-7 cells
Assay type: cell-based
Settings: 3 μM, 24 hours
In your answer, state the number alone without any accompanying words.

See these solved cases before continuing.
| Molecule | Data value |
| --- | --- |
| CSc1c(C)cc(C(=O)/C=C/c2cc(C)c(OC(C)(C)C(=O)O)c(C)c2)cc1C [compound 13] | 3.89 |
| Cc1cc(/C=C/C(=O)c2c(C)c(C)c(C)c(C)c2C)cc(C)c1OC(C)(C)C(=O)O [compound 31] | 7.79 |
| Cc1cc(/C=C/C(=O)c2ccc(Oc3ccccc3)cc2)cc(C)c1OC(C)(C)C(=O)O [compound 33] | 7.99 |
| Cc1cc(/C=C/C(=O)c2ccc(OCCSC3CCCCC3)cc2)cc(C)c1OC(C)(C)C(=O)O [compound 23] | 6.98 |

Turning now to a further record.
Query: Report Induction factor for CCCCCCSc1c(C)cc(C(=O)/C=C/c2cc(C)c(OC(C)(C)C(=O)O)c(C)c2)cc1C [compound 39] tested on PPARγ (Homo sapiens).
Result: 4.72

###

Listed below: Induction factor values for each entry.
Assayed system: PPARγ (Homo sapiens, UniProt P37231)
Construct: expressed in transfected cells; host or cells: COS-7 cells
Assay info: PPARγ/Gal4 transactivation system in COS-7 cells
Type: cell-based
Settings: 0.001 μM, 24 hours
Number, no unit, nothing else.

Sample answers from the record:
| Smiles str | Induction factor |
| --- | --- |
| CCCCCCSc1c(C)cc(C(=O)/C=C/c2cc(C)c(OC(C)(C)C(=O)O)c(C)c2)cc1C | 0.95 |
| Cc1cc(/C=C/C(=O)c2c(C)c(C)c(C)c(C)c2C)cc(C)c1OC(C)(C)C(=O)O | 1.44 |
| CSc1c(C)cc(C(=O)/C=C/c2cc(C)c(OC(C)(C)C(=O)O)c(C)c2)cc1C | 0.99 |
| Cc1cc(/C=C/C(=O)c2ccc(Oc3ccccc3)cc2)cc(C)c1OC(C)(C)C(=O)O | 1.18 |

Kindly consider the entry below.
Query: Recorded Induction factor of "Cc1cc(/C=C/C(=O)c2ccc(OCCSC3CCCCC3)cc2)cc(C)c1OC(C)(C)C(=O)O" , please.
Result: 1.43
